target: Metabotropic glutamate receptor 5 (Rattus norvegicus, UniProt P31424); experiment: Concentration for half maximal activation of metabotropic glutamate mGluR5a in rat
Sequence (P31424 whole entry): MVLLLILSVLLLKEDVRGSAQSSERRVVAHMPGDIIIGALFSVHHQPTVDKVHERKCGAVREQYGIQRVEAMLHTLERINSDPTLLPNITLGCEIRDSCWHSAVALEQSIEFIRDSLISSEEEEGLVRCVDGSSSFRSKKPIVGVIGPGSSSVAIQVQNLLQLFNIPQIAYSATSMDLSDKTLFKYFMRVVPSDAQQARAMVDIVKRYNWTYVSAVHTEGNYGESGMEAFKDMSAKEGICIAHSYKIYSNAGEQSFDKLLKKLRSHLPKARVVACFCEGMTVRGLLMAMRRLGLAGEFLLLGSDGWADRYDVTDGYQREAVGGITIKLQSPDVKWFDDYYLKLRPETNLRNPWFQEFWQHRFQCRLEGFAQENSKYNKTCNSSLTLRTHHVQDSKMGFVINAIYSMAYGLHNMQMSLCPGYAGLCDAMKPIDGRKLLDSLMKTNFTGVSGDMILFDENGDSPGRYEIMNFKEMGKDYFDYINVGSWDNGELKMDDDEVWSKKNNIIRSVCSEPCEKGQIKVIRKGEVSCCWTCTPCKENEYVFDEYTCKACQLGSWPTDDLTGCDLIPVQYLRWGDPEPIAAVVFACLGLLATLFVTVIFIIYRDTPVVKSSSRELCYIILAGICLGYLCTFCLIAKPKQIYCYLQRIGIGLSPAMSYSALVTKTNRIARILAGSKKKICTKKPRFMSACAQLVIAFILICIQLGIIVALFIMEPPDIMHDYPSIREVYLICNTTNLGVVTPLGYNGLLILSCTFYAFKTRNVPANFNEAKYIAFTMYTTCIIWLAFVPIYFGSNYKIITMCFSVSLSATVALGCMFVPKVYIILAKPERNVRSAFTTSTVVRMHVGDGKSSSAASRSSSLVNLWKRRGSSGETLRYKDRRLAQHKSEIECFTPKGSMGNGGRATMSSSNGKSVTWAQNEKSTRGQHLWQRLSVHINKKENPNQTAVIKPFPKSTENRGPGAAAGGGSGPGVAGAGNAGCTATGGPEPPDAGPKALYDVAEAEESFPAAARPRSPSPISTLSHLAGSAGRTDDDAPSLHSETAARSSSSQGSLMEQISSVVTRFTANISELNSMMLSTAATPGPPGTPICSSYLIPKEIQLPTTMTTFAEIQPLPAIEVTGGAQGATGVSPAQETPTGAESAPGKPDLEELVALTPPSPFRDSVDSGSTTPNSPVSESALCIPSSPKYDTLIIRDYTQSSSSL
experimental_endpoint: EC50
I'd appreciate it if you wrote the number followed by its unit.

INPUT: Param item = N[C@@H](Cn1oc(=O)[nH]c1=O)C(=O)O ; retrieve measured EC50.
OUTPUT: 0.3 µM

INPUT: Param item = N[C@@]1(C(=O)O)CC[C@@H](C(=O)O)C1 ; retrieve measured EC50.
OUTPUT: 50 µM

INPUT: Param item = N[C@H](C(=O)O)c1cc(=O)[nH]o1 ; retrieve measured EC50.
OUTPUT: 10 µM

INPUT: Param item = N[C@@H](CCC(=O)O)C(=O)O ; retrieve measured EC50.
OUTPUT: 10 µM

src = BindingDB's records for doi:10.1021/jm00009a001
